Tested on: PfAP2-LT AP2 domain (GST-tagged)
Test: gcPBM binding intensity (ln(normalized median fluorescence intensity)); higher = stronger DNA binding
Whole data set: some 25,000 sequences, median “ln(normalized median fluorescence intensity)” near 8.9, cut for the highest 2% near 10. Only a selection was taken, and the highest values are over-represented in it overall.
reported metric: gcPBM binding intensity (ln)
Form field (numeric): enter value without unit.

Would you please look over these solved cases?
entry sequence	target	gcPBM binding intensity (ln)
AACACAGATAAATTAACACACACACCCATATATATA [CACACA_site9310]	PfAP2-LT AP2 domain (GST-tagged)	9.85
ATTAAATCCGCACGCACACACACATATTAATAAAAA [CACACA_site3992]	PfAP2-LT AP2 domain (GST-tagged)	9.71
AAGAAAAGCATAGATGCACACATATATATATATATA [CACACA_site8675]	PfAP2-LT AP2 domain (GST-tagged)	10.2
TTCCCATGTAATATTAAACACACACCCATATAACAC [CACACA_site7905]	PfAP2-LT AP2 domain (GST-tagged)	9.51
CGTTTATTAAACTTGACACACACACCCCCACATATA [CACACA_site8151]	PfAP2-LT AP2 domain (GST-tagged)	9.97

# gcPBM binding intensity (ln) lookup, item TTAATATTTTGATGTGTACACATTAAAATAGTTTTA [CACACA_site5712]
8.46

# gcPBM binding intensity (ln) lookup, item GATCTACATGAAAGGACACACAAATATATATATATA [CACACA_site84]
9.62

# gcPBM binding intensity (ln) lookup, item TTAGAAACATTGAAAGCATGCAATATTACTTTATAC [TGCATGCA_site522]
8.82

# gcPBM binding intensity (ln) lookup, item TTATTATTATGATTATTATGATGATTATACAACTGT [TGCATGCA_negctrl_site241]
8.85

###

Test system: PfAP2-LT AP2 domain (GST-tagged)
Experiment: gcPBM binding intensity (ln(normalized median fluorescence intensity)); higher = stronger DNA binding
Whole data set: some 25,000 sequences, median “ln(normalized median fluorescence intensity)” near 8.9, cut for the highest 2% near 10. The sample holds the highest values, similar sequences and a random draw of the others, so the mix is not that of the screen.
reported metric: gcPBM binding intensity (ln)
Form field (numeric): enter value without unit.

Would you please look over these solved cases?
entry sequence	gcPBM binding intensity (ln)
GTTTGGTGGTGTTTTGGTACGTACGGGGGTGTATGT [XGTACX_site1211]	9.88
TGAAGCAAAAACAAAACACACATATAAATAAATAAA [CACACA_site3925]	9.15
AAAAATAAAAAAAACACACATACCTTATTTTTGTTC [CACACA_site2634]	8.98
AAAAAAACACACACATATATATATATATATATATAT [GTGCAC_negctrl_site498]	10.2
CCTTTAAGCAAAAACACACACACATATATATATATA [CACACA_site348]	9.95

# gcPBM binding intensity (ln) lookup, item CCTTTAAGCAAAAACACACACACATATTTATTTATA [CACACA_site6294]
9.41

# gcPBM binding intensity (ln) lookup, item TTTTAAATATGCAGATGTACATTATAATGTTTTATT [XGTACX_site2079]
8.87

# gcPBM binding intensity (ln) lookup, item TATGATTTTTATATATGTACGTATGGTGTTTTACAA [XGTACX_site6100]
8.76

# gcPBM binding intensity (ln) lookup, item AAACATATATTAAGCACACACAAACAAAAAAACAAA [CACACA_site2549]
9.59
